Where do the numbers come from? From paper PMC3819402.

Test system: HCT116
assay-text: In vitro cytotoxicity, HCT116
Format: cell-based
reported-conditions: Homo sapiens, HCT-116, 96 h, read-out: IC50 (GI50) HCT116
quantity-kind: IC50 (nM)
Express your answer in nM, writing the number without its unit.

Incoming: # query: IC50 of entry `COc1cc(OC)c(/C=C/S(=O)(=O)Nc2ccc(OC)c(O)c2)c(OC)c1`
Outgoing: 10

----------
System: N417
assay-text: In vitro cytotoxicity, N417
Format: cell-based
reported-conditions: Homo sapiens, N417, 96 h, read-out: IC50 (GI50) N417
quantity-kind: pIC50
Entry type: numeric. Quantity: pIC50, the -log10 of concentration in molar units.

Answered cases to consult:
molecule	pIC50
COc1cc(OC)c(/C=C/S(=O)(=O)Nc2ccc(OC)c(NC(C)(C)C(=O)O)c2)c(OC)c1 [25c]	7.52
COc1cc(OC)c(/C=C/S(=O)(=O)Nc2ccc(OC)c(O)c2)c(OC)c1 [6p]	8.00

Note: attention shifts to another entry.
Incoming: Item COc1ccc(NS(=O)(=O)/C=C/c2c(OC)cc(OC)cc2OC)cc1 [6i] has what recorded pIC50?
Outgoing: 7.30

----------
System: RF-48
assay-text: In vitro cytotoxicity, RF-48
Type: cell-based
reported-conditions: Homo sapiens, RF48, 96 h, read-out: IC50 (GI50) RF-48
quantity-kind: pIC50
Reminder that pIC50 means the negative base-10 logarithm of the concentration expressed in mol/L.

Incoming: What does the record list as pIC50 for `COc1cc(OC)c(/C=C/S(=O)(=O)Nc2ccc(OC)c(O)c2)c(OC)c1` ?
Outgoing: 8.00

----------
Each entry below lists one item and its recorded IC50 value.
System: MOLT-4
assay-text: In vitro cytotoxicity, MOLT-4
Assay type: cell-based
reported-conditions: Homo sapiens, MOLT-4, 96 h, read-out: IC50 (GI50) MOLT-4
Answer format: numeric, nM implied, no suffix.

compound	unit-text	IC50
COc1cc(OC)c(/C=C/S(=O)(=O)Nc2ccc(OC)c(NC(C)(C)C(=O)O)c2)c(OC)c1 [25c]	nM	30

Incoming: API: value(readout= IC50, system= MOLT-4, query= `COc1cc(OC)c(/C=C/S(=O)(=O)Nc2ccc(OC)c(N)c2)c(OC)c1` )
Outgoing: 8
